Data origin: ChEMBL document CHEMBL3804819

- System: Mycobacterium tuberculosis
- TEST SUMMARY: Antibacterial activity against Mycobacterium tuberculosis H37Rv infected in mouse RAW 264.7 cells assessed reduction in bacterial count per well at 5 uM after 3 days (reference value: 2.5 +/- 0.15 log10CFU)
- Assay type: functional
READOUT LABEL: Activity (log10CFU)
Answers are plain numbers, in log10CFU.

Okay, here is my list. What is Activity for each of these?
1. COc1ccc2nc(C)cc(OCC(=O)Nc3cccc(Cl)c3)c2c1
2. COc1ccc2nc(C)cc(OCC(=O)Nc3ccccc3C)c2c1
3. COc1ccc2nc(C)cc(OCC(=O)Nc3ccccc3Cl)c2c1

1. 2.12
2. 2.09
3. 1.75

----------
Give measured Activity for each item. Keep answers brief.
- Test system: Mycobacterium tuberculosis
- TEST SUMMARY: Antibacterial activity against Mycobacterium tuberculosis H37Rv infected in mouse RAW 264.7 cells assessed reduction in bacterial count per well at 5 uM after 3 days (reference value: 2.5 +/- 0.15 log10CFU)
- Format: functional
Numbers only, in log10CFU.

Example results:
# MOL, Activity (log10CFU)
records = [
    ("COc1ccc2nc(C)cc(OCC(=O)Nc3ccc(C(F)(F)F)cc3)c2c1", 1.89),
    ("COc1ccc2nc(C)cc(OCC(=O)Nc3ccccc3OC)c2c1", 1.61),
    ("CO[C@H]1/C=C/O[C@@]2(C)Oc3c(C)c(O)c4c(O)c(c(/C=N/N5CCN(C)CC5)c(O)c4c3C2=O)NC(=O)/C(C)=C\\C=C\\[C@H](C)[C@H](O)[C@@H](C)[C@@H](O)[C@@H](C)[C@H](OC(C)=O)[C@@H]1C", 1.58),
    ("COc1ccc2nc(C)cc(OCC(=O)Nc3ccc(Br)cc3)c2c1", 1.87),
]

Okay, here is my list. What is Activity for each of these?
1. COc1ccc2nc(C)cc(OCC(=O)NCc3ccccc3)c2c1
2. COc1ccc2nc(C)cc(OCC(=O)Nc3ccc(Cl)cc3)c2c1
3. COc1ccc2nc(C)cc(OCC(=O)Nc3ccc4ccccc4c3)c2c1

1.71
1.73
1.93

Okay, here is my list. What is Activity for each of these?
1. COc1ccc2nc(C)cc(OCC(=O)Nc3ccc4c(c3)OCO4)c2c1
2. COc1ccc(NC(=O)COc2cc(C)nc3ccc(OC)cc23)c(OC)c1

1. 1.77
2. 1.61

----------
- TEST SUMMARY: Selectivity index, ratio of cytotoxic activity for African green monkey Vero cells to MIC for Mycobacterium tuberculosis H37Rv
- Format: toxicity, cell-based
- REPORTED CONDITIONS: read-out: Selectivity Index
READOUT LABEL: Selectivity ratio

The molecule listed as COc1ccc2nc(C)cc(OCC(=O)Nc3ccc4ccccc4c3)c2c1 shows Selectivity ratio equal to > 100

----------
- TEST SUMMARY: Thermodynamic solubility of the compound at pH 7.4 after 24 hrs by HPLC analysis
- Assay type: physicochemical
- REPORTED CONDITIONS: buffer, read-out: Therm_solubility
READOUT LABEL: solubility thermodynamic at 24 h

Example results:
# MOL, solubility thermodynamic at 24 h
rows = [
    ("COc1ccc(NC(=O)COc2cc(C)nc3ccc(OC)cc23)c(OC)c1", "< 4.4 µM"),
    ("COc1ccc2nc(C)cc(OCC(=O)Nc3ccc4ccccc4c3)c2c1", "< 4.4 µM"),
]

Now, please, on to the next compound.
The compound listed as COc1ccc2nc(C)cc(OCC(=O)Nc3ccc(Br)cc3)c2c1 shows solubility thermodynamic at 24 h equal to < 4.4 µM
